Test system: soybean cyst nematode (Heterodera glycines)
Test: Test on effects against soybean cyst nematode: treated contaminated soil, soybean pot test (Test Example 3)
Assay type: in vivo
Set-up: key: 0: No parasitic cyst observed on the roots at all; 1: Parasitic cyst observed to a slight degree; 2: Parasitic cyst observed to a moderate degree; 3: Parasitic cyst observed to a heavy degree; 4: Parasitic cyst observed densely on the entire roots
Details: 800 ppm, 10 ml poured to 200 ml contaminated soil, about one month after sowing
measure: parasite index

{"item smiles": "CC(C)(C(=NNC=O)c1cc(F)ccc1Cl)n1cnc(C(F)(F)F)n1", "target or test system": "soybean cyst nematode (Heterodera glycines)", "observed": 1}
{"item smiles": "CC(C)(C(=NNC=O)c1cccc(F)c1)n1ccc(Br)n1", "target or test system": "soybean cyst nematode (Heterodera glycines)", "observed": 1}
{"item smiles": "CC(C)(C(=NNC=O)c1cccc(Cl)c1)n1ccc(C(F)(F)F)n1", "target or test system": "soybean cyst nematode (Heterodera glycines)", "observed": 1}

* * *

System: southern root-knot nematode (Meloidogyne incognita)
Experiment: Test on effects against southern root-knot nematode: treated contaminated soil, cucumber pot test (Test Example 1 and Comparative Test)
Assay type: in vivo
Set-up: key: 0: No knot formed on the root at all; 1: Knots formed to a slight degree; 2: Knots formed to a moderate degree; 3: Knots formed to a heavy degree; 4: Knots formed to the heaviest degree
Conditions: 400 ppm, 10 ml poured to 200 ml contaminated soil; cucumber; two to three weeks after sowing
measure: root knot index

{"item smiles": "CC(C)(C(=NNC=O)c1ccccc1OC(F)(F)F)n1ccc(C(F)(F)F)n1", "measure": "root knot index", "observed": 1}
{"item smiles": "CC(C)(C(=NNC=O)c1cccc(Cl)c1Cl)n1cnc(C(F)(F)F)n1", "measure": "root knot index", "observed": 1}
{"item smiles": "CC(C)(C(=NNC=O)c1cccc(Cl)c1)n1cnc(C(F)(F)F)n1", "measure": "root knot index", "observed": 1}
{"item smiles": "CC(C)(C(=NNC=O)c1cccc2c1OC(F)(F)O2)n1ccc(C(F)(F)F)n1", "measure": "root knot index", "observed": 1}
{"item smiles": "Cc1ccccc1C(=NNC=O)C1(n2ccc(C(F)(F)F)n2)CC1", "measure": "root knot index", "observed": 1}
{"item smiles": "CC(C)(C(=NNC=O)c1ccccc1Cl)n1cnc(Cl)n1", "measure": "root knot index", "observed": 1}
{"item smiles": "Cc1cccc(C(=NNC=O)C(C)(C)n2ccc(C(F)(F)F)n2)c1", "measure": "root knot index", "observed": 1}
{"item smiles": "CC(C)(C(=NNC=O)c1ccccc1Cl)n1ccc(Cl)n1", "measure": "root knot index", "observed": 1}
{"item smiles": "Cc1ccccc1C(=NNC=O)C(C)(C)n1cc(F)cn1", "measure": "root knot index", "observed": 1}
{"item smiles": "Cc1ccccc1C(=NNC=O)C(C)(C)n1ccc(Br)n1", "measure": "root knot index", "observed": 1}
